# MEASUREMENT_NOTES: binders from COS7 lysate, DM2A8 probe, primary screen, torsin A project, cell lysate, small-molecule microarray, fluorescence 635/667 (AID 1065)
# ASSAY_CONDITIONS: higher = more signal, COS7 lysate expressing mutant human TOR1A
MEASUREMENT_TYPE: composite z-score
Answers are plain numbers.

CCCC=C(CCC)[C@@H](NC(=O)c1ccco1)c1ccc(C(=O)OC)cc1; 0.127
O=C1N(CCS(=O)(=O)c2ccccc2)c2ccccc2[C@@H]2OC(c3ccc(OCCCO)cc3)=N[C@]12CCS(=O)(=O)c1ccccc1; 0.145
CC(C)CNC(=O)[C@@]1(C)c2ccccc2C(=O)N(Cc2cc(F)cc(C(F)(F)F)c2)[C@H]1c1ccc(CO)cc1; -0.188
COC(=O)Cn1c(C(=O)N(C)C)cc2c1C[C@H]1CN(C(=O)c3ccccc3)[C@@](Cc3ccc(OC)cc3)(C(=O)OC)[C@@H]21; -0.195
COCCOC(=O)N1C(=O)[C@@]2(c3cc(C#CCC(C(=O)OC)C(=O)OC)ccc31)[C@H](C(N)=O)[C@H]1C(=O)O[C@H](c3ccccc3)[C@H](c3ccccc3)N1[C@@H]2c1ccc(OCCO)cc1; 0.787
CC(C)[Si](C#CCCCC#N)(O[C@H](c1ccccc1)c1cn([C@H](C)c2ccccc2)nn1)C(C)C; 0.268

Next, consider the following compound.
The value of composite z-score measured for the compound "COC(=O)C(CC#Cc1ccc2c(c1)[C@]1(C(=O)N2)[C@H](c2ccc(O)cc2)N2[C@H](c3ccccc3)[C@H](c3ccccc3)OC(=O)[C@H]2[C@@H]1C(=O)N1CCc2cc(OC)c(OC)cc2C1)C(=O)OC" turned out to be 0.475
